The reported measurements were obtained from patent US20200239555A1.

target-entity: T1, native human ApoC3 (human, UniProt P02656 21-99)
T1 construct: also called nhuApoC3; native huApoC3
T1 sequence (P02656 21-99): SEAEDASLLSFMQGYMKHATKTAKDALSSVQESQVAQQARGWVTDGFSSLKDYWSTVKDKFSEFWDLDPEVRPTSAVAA
procedure-summary: SPR, ApoC3 over captured IgG1, pH 5.5
attribute-measured: Ka (M⁻¹)
A number alone suffices; assume M⁻¹.

mAb1 (antibody, IgG1, V domains shown, Produced as full length IgG1 (kappa) in ExpiCHO-S cells; also called humanized anti-ApoC3 antibody mAb1) VH: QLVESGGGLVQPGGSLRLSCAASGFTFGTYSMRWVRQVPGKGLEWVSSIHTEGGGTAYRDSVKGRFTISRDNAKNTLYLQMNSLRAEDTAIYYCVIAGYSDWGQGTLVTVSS VL: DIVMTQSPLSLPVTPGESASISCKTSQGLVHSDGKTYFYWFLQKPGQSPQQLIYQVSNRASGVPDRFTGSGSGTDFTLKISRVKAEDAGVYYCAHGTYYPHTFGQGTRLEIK :: 3.95e+06
mAb12 (antibody, IgG1, V domains shown, Produced as full length IgG1 (kappa) in ExpiCHO-S cells; also called humanized anti-ApoC3 antibody mAb12) VH: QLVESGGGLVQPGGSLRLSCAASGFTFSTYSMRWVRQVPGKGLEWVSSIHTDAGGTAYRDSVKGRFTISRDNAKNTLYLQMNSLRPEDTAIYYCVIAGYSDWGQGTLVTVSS VL: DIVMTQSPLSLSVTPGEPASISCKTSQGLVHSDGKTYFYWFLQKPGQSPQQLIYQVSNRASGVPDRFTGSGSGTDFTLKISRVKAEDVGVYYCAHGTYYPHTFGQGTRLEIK :: 2.91e+06

Let us move to another entry and its Ka.
Input line: // fetch Ka given entry mAb15 (antibody, IgG1, V domains shown, Produced as full length IgG1 (kappa) in ExpiCHO-S cells; also called humanized anti-ApoC3 antibody mAb15) VH: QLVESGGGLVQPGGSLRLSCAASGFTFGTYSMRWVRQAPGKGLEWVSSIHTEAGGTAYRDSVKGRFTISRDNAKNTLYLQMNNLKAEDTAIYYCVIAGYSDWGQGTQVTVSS VL: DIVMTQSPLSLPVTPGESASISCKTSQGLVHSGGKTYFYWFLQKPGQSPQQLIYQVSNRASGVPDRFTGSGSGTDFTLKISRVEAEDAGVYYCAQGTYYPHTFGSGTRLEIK
Output line: 1.16e+07
